- System: LXRa homodimer (NR concentration 270 nM)
- Assay protocol: PBM binding z-score (relative to random genomic background probes); higher = stronger binding; sequences stand for … in GC…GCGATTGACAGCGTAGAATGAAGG
Measure: PBM binding z-score
Please reply with the value in numeric form only.

1) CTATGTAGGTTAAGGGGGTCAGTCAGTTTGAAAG    1.38
2) CCTTACGGGTCACTGACAGCTTATAGCATTTGGA    0.0209
3) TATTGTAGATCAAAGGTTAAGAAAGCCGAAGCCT    0.529
4) TAGCCTAGGTGATTGGGCCAGTATAGTACGCATC    -0.293
5) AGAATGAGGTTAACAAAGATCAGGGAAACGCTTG    0.105
6) ATATGTAGGTTAGGGTCATTCATAAAGTAGGGAA    1.6
7) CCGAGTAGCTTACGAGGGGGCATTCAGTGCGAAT    0.701
8) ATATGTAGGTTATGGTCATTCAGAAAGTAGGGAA    0.432

// fetch PBM binding z-score; item: CGAACTAGGTCACCAGGACAGTGATGAGGTTGGA ; system: LXRa homodimer (NR concentration 270 nM)
0.0863

Provide LXRa homodimer (NR concentration 270 nM) PBM binding z-score reading for CCTACTGGGCCATTAAGAGGTCATTGATCATATG .
6.58

Send back LXRa homodimer (NR concentration 270 nM) PBM binding z-score of TCTAGTTGGTCAAAGGTCAAACACTCGAAATGCG only.
5.24

# lookup: LXRa homodimer (NR concentration 270 nM) PBM binding z-score, key = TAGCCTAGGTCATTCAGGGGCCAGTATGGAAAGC
0.839

---

Recorded PBM binding z-score, one value per entry.
- Tested on: PPARg DBDmut IVT, anti-PPARg (DBD mutation: PPARg1 K132A/R137A, NR concentration 270 nM)
- Assay protocol: PBM binding z-score (relative to random genomic background probes); higher = stronger binding; sequences stand for … in GC…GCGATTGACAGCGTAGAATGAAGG
# respond with the number and nothing more

Below, 6 sequences whose answers are already recorded.
1) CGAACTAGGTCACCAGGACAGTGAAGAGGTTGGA    4.55
2) ATATGTAGGTCATCGGGTCATTCAGTTTGCGCAT    6.66
3) CCTGCTAGTTCATGGTCAGCTAATCTACAGTATG    -0.632
4) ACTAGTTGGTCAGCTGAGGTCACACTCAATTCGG    -0.0108
5) CCTCGGAGGACAGAAGGTCAGATCTGTCCGCTTT    -1.55
6) CAAACTAGGTCAAGAGGTCAAAGGCCGCTTCCCG    3

In one line, give reported PBM binding z-score of the entry GCTTCCGGGTCAAAGGTTATAGCATGAATAGAAT .
1.77

Note down PBM binding z-score recorded for GATACAGGGGCAAGGCCAGAGTACGCGTATTGAT
-0.28

State its PBM binding z-score: CGTCAAAGTTCATGGTAACGTAACAGAAAGCAGC
1.03

Retrieve PBM binding z-score measured for CGTCCAAGGTCAGTGAGGTCAGTGAATGCCGAGT and print it.
-0.804

Identify PBM binding z-score associated with the sequence ACTAATTGGTCAGCTGAGGTCACACACAATTCGG
1.2

Specify PBM binding z-score for CCTTACGGGTCACTCAAGGTTATAGCATCGGAGT and stop.
1.29

---

- Test system: RARg homodimer (NR concentration 270 nM)
- Assay protocol: PBM binding z-score (relative to random genomic background probes); higher = stronger binding; sequences stand for … in GC…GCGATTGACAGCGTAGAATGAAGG
Measure: PBM binding z-score
Write no unit; give the number alone.

Quick one: give measured PBM binding z-score for CCGAGTAGGTTACCAGGGGGCATTCAGTGCGAAT
2.52

Look up and report measured PBM binding z-score for this entry: CGAACTAGGTCACCAGGACAGAGAAGAGGTTGGA
5.47

Entry CGAACTAGGTCACCTGGACAGTGAAGAGGTTGGA needs its PBM binding z-score filled in; supply it.
5.32

Please supply the value of reported PBM binding z-score for the item ACTAGTAGGCCAAGGGTCACTCAAGATTAGTCCG
4.21

Please supply the value of reported PBM binding z-score for the item AAAATGAGGTTAAGATCAGGGAAACAGAATACAT
1.37

Supply reported PBM binding z-score belonging to this sequence: GCTTACGGGTCAAAGGTTATAACATGAATAGAAT
4.77

---

Listed next: entries and their corresponding PBM binding z-score.
- Test system: THRa homodimer (NR concentration 90 nM)
- Assay protocol: PBM binding z-score (relative to random genomic background probes); higher = stronger binding; sequences stand for … in GC…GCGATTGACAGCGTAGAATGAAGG
Reply briefly: the number, and no unit.

1. CCGGGTAGGTTACGAGGGGGCATTCAGTGCGAAT    0.875
2. CCGAGTAGGTTACGAGGGCGCATTCAGTGCGAAT    -0.711

Supply reported PBM binding z-score belonging to this sequence: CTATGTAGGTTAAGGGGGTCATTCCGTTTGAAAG
1.83

Supply recorded PBM binding z-score for CAAACTAGGTCACGAAAGGTCAAAGTTGAATGAC here.
2.88

Output measured PBM binding z-score for this item: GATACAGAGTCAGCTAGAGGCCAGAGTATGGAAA
-1.05

Return PBM binding z-score for the following sequence: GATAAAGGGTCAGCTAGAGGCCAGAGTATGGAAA
-0.108

---

- Tested on: LXRa homodimer (NR concentration 270 nM)
- Assay protocol: PBM binding z-score (relative to random genomic background probes); higher = stronger binding; sequences stand for … in GC…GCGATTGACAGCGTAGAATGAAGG
In this section, each of the sequences is paired with its reported PBM binding z-score.
Form: value (number only, do not type unit).

Observe how each entry below is paired with its result.
1) ACAGACAGGTGAGTGAAGGTCACTCAGCTGGACG    0.517
2) CCTACTGGGCCAAGGTCATTGCTCAGTCAAAGCA    0.828
3) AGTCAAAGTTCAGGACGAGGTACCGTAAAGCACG    1.07
4) ATCGAAAGGTCGACGAGGTGAGAATACACCGTTT    0.0731
5) CCGAGTAGGTGACGAGGGGGCATTCAGTGCGAAT    0.595
6) CGAACTAGCTCAAGGACAGTGAATCTCCGCACGC    0.172
7) TCGAGTAGGTTACGGGGACATTCAGGGATGAAGA    -0.0512
8) CGAACTAGGTCAAAGGACAATGAAAGGCGACGTA    0.155
9) GATACGGGGTCAGCTAGAGGCCAGAGTATGGAAA    -0.127
10) CCGACGGGGGCAGAAAGGTTACCATACCATCCGG    0.333

Tell me measured PBM binding z-score for CCGAGTAGGTTACGAGGGGGCATGCAGTGCGAAT please.
0.861

Output measured PBM binding z-score for this item: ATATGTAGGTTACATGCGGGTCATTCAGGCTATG
0.959

Provide one value: measured PBM binding z-score of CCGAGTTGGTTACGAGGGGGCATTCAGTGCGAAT
1.21

# return recorded PBM binding z-score for input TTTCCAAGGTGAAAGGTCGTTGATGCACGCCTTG
0.323

Return value of PBM binding z-score for input ATCTCTAGGTTAAAGTTCAGTGAATCCCGAGGAT , no commentary.
3.34

Identify measured PBM binding z-score corresponding to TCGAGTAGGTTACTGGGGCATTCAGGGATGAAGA
-0.186

---

- Tested on: PXR homodimer (NR concentration 270 nM)
- Assay protocol: PBM binding z-score (relative to random genomic background probes); higher = stronger binding; sequences stand for … in GC…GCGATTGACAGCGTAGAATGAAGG
PBM binding z-score below 1 gives label 0; PBM binding z-score at or above it gives label 1.

Worked examples follow.
1) CCTACGGGGCCAAAGGTCATTGATTCCAATGCTC    label 1
2) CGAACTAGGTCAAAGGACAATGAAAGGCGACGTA    label 0
3) TCATATAGGTCAAAGGTGAAAGTCGGTGTGGTAA    label 1

Say whether ACTATCAGGCCAAGGGTCACTCAAGATTAGTCCG shows PBM binding z-score of 1 or more.
label 0

Record CGTCAAAGTTCAAGGTAATGTAACAGAAAGCAGC ; criterion: PBM binding z-score no lower than 1. Met?
label 1

Decide: PBM binding z-score of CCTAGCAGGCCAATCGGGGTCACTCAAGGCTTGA >= 1?
label 1

Has CCTTACGGGTCAAGGTTATATCACGGGTGGTACG a recorded PBM binding z-score greater than or equal to 1?
label 0

Could you verify whether the entry TCGAGTACGTTACGGGGGCATTCAGGGATGAAGA shows PBM binding z-score of no less than 1?
label 1

Determine whether measured PBM binding z-score meets or exceeds 1 for CTATGTAGGTTAAAGGGGTCATTCAGTTTGAAAG
label 1

Entry ATATGTAGGTTACATCCGAGTCATTCAGGCTATG : is its PBM binding z-score no less than 1?
label 0

Has CAAACTAGGTCAAAGGTCAAAGCCGAGCCAACCA a recorded PBM binding z-score greater than or equal to 1?
label 1

Tell me whether PBM binding z-score is at least 1 here: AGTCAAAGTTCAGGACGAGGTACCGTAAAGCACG
label 0

Kindly determine if PBM binding z-score recorded for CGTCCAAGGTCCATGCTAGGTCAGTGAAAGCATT is above or exactly 1.
label 0

Does GCTGCTAGGTCAGGTTGGTCGGCTAACGGGTACG have a reported PBM binding z-score of at least 1?
label 0

Exam item: decide whether the reported PBM binding z-score for CGTCAAAGTTCAAGGTAAAGTAACAGAAAGCAGC is at least 1.
label 1

Item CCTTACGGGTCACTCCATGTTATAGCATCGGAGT with PBM binding z-score of 1 or above?
label 0

Attribution: the supplement of paper PMC6555819
